Below, each of the compounds is paired with its reported Fig. 7a Th-T reading, mean of three wells value.
# System tested: Aβ42 (Homo sapiens, UniProt P05067)
# Sequence (P05067 672-713): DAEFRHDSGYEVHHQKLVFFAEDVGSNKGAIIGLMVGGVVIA
# Test method notes: Th-T (thioflavin-T) assay of Aβ42 aggregation
# Format: biochemical
# Condition description: column suffix _20; reading M96
Value kind: Fig. 7a Th-T reading, mean of three wells

INSERT INTO measurements (compound, endpoint_value) VALUES
  ('C=C1CCC2C(C)(CCC=C(C)C)C(O)CCC2(C)C1Cc1c(OC)oc(C)c(C(=O)OC)c1=O (centres unmarked)', 1.793),
  ('C=C1CC[C@@H]2[C@](C)(CC[C@H]3O[C@H](C=C(C)C)C[C@@]23C)[C@@H]1Cc1c(OC)oc(CO)c(C(=O)OC)c1=O', 0.9004),
  ('C=C1CCC2C(C)(CCC=C(C)C)C(O)CCC2(C)C1Cc1c(OC)oc(CO)c(C(=O)OC)c1=O (centres unmarked)', 1.04),
  ('C=C1CCC2C(C)(CCC=C(C)C)C(O)CCC2(C)C1Cc1c(OC)oc(CO)c(C)c1=O (centres unmarked)', 2.08),
  ('C=C1CC[C@@H]2[C@](C)(CC[C@H]3O[C@H](C=C(C)C)C[C@@]23C)[C@@H]1Cc1c(OC)oc(CO)c(C)c1=O', 3.268);

* * *

# System tested: Aβ42 (Homo sapiens, UniProt P05067)
# Test method notes: Th-T (thioflavin-T) assay of Aβ42 aggregation
# Assay type: biochemical
# Condition description: Supplementary Fig. 47; reading M143
Value kind: Th-T fluorescence, mean of three wells

INSERT INTO results (molecule, endpoint_value) VALUES
  ('C=C1CCC2C(C)(CCC=C(C)C)C(O)CCC2(C)C1Cc1c(O)c(C)c(C)oc1=O (stereo not shown) [Compound 9, higginsianin B]', 2.794),
  ('C=C1CC[C@H]2[C@]3(C)C[C@H](C=C(C)C)O[C@H]3CC[C@]2(C)[C@@H]1Cc1c(OC)oc(C)c(C)c1=O', 3.843),
  ('C=C1CCC2C(C)(CCC=C(C)C)C(O)CCC2(C)C1Cc1c(O)c(C)c(C)oc1=O (stereo not shown) [Compound 4]', 2.798),
  ('C=C1CC[C@H]2[C@]3(C)C[C@H](C=C(C)C)O[C@H]3CC[C@]2(C)[C@@H]1Cc1c(OC)oc(CO)c(C)c1=O', 3.695),
  ('C=C1CC[C@H]2[C@]3(C)C[C@@H](C=C(C)C)O[C@H]3CC[C@]2(C)[C@@H]1Cc1c(OC)oc(CO)c(C)c1=O', 3.569),
  ('CC(C)=CCC/C(C)=C/CC/C(C)=C/CC/C(C)=C/Cc1c(O)c(C)c(C)oc1=O', 2.941),
  ('C=C1CC[C@H]2[C@]3(C)C[C@@H](C=C(C)C)O[C@H]3CC[C@]2(C)[C@@H]1Cc1c(O)c(C)c(C)oc1=O', 2.626),
  ('C=C1CC[C@@H]2[C@](C)(CC[C@H]3O[C@H](C=C(C)C)C[C@@]23C)[C@@H]1Cc1c(O)c(C)c(C)oc1=O', 3.01),
  ('C=C1CCC2C(C)(CCC=C(C)C)C(O)CCC2(C)C1Cc1c(OC)oc(C)c(C)c1=O (stereo not shown) [Compound 15, viridoxin A hydrolysate]', 3.336),
  ('C=C1CCC2C(C)(CCC=C(C)C)C(O)CCC2(C)C1Cc1c(OC)oc(C)c(C)c1=O (stereo not shown) [Compound 11]', 3.276),
  ('C=C1CC[C@H]2[C@]3(C)C[C@H](C=C(C)C)O[C@H]3CC[C@]2(C)[C@@H]1Cc1c(O)c(C)c(C)oc1=O', 3.017),
  ('C=C1CCC2C3(C)CC(C=C(C)C)OC3CCC2(C)C1Cc1c(OC)oc(C)c(C)c1=O (stereo not shown)', 3.7233),
  ('C=C1CCC2C(C)(CC(=O)C=C(C)C)C(O)CCC2(C)C1Cc1c(OC)oc(C)c(C)c1=O (stereo not shown)', 3.477),
  ('C=C1CCC2C(C)(CC(=O)C=C(C)C)C(O)CCC2(C)C1Cc1c(OC)oc(CO)c(C)c1=O (stereo not shown)', 3.559),
  ('C=C1CCC2C(C)(CC(=O)C=C(C)C)C(O)CCC2(C)C1Cc1c(O)c(C)c(C)oc1=O (stereo not shown)', 3.394),
  ('C=C1CCC2C(C)(CCC=C(C)C)C(=O)CCC2(C)C1Cc1c(O)c(C)c(C)oc1=O (stereo not shown)', 2.202);
